Quick reference for viability, T/C among some compounds
system: NCI-H196 SCLC complex tumor spheroid viability; test: Anticancer human tumor NCI-H196 cell line growth inhibition; details: second compound 0.0003 µM; first compound 0.0316 µM; stronger effect = lower value;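 further: spheroids exposed to compounds for 7 days before readout; 100% = DMSO vehicle control wells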
Give your result in % as a bare value.

Worked examples follow.
* CC(C)n1c(=O)n(C)c2cnc3cc(F)c(-c4ccc(OCCCN5CCCCC5)nc4)cc3c21 + COc1cc2c(cc1O)CCNC21CSC2c3c(OC(C)=O)c(C)c4c(c3C(COC1=O)N1C(O)C3Cc5cc(C)c(OC)c(O)c5C(C21)N3C)OCO4 | 103
* CC1COCCN1c1cc(-c2ccnn2C)c2ccnc(-c3ccn[nH]3)c2n1 (stereo unspecified) + COc1cc2c(cc1O)CCNC21CSC2c3c(OC(C)=O)c(C)c4c(c3C(COC1=O)N1C(O)C3Cc5cc(C)c(OC)c(O)c5C(C21)N3C)OCO4 | 81.8

The compound listed as COc1ccc([C@@H](O)c2cc(-c3ncnc4cc(N5CCOCC5)ccc34)c(F)cc2Cl)nn1 + COc1cc2c(cc1O)CCNC21CSC2c3c(OC(C)=O)c(C)c4c(c3C(COC1=O)N1C(O)C3Cc5cc(C)c(OC)c(O)c5C(C21)N3C)OCO4 shows viability, T/C equal to 99

The measured viability, T/C associated with COc1cc(C)[nH]c(=O)c1CN1CCc2c(Cl)cc(C(OC)C3COC3)c(Cl)c2C1=O (stereo unspecified) + COc1cc2c(cc1O)CCNC21CSC2c3c(OC(C)=O)c(C)c4c(c3C(COC1=O)N1C(O)C3Cc5cc(C)c(OC)c(O)c5C(C21)N3C)OCO4 reads 100

Lab note: [2H]c1nc(C)nc([2H])c1-c1cc(NC[C@@H](C)c2cccc3c(C(=O)NC)ccnc23)ncn1 + COc1cc2c(cc1O)CCNC21CSC2c3c(OC(C)=O)c(C)c4c(c3C(COC1=O)N1C(O)C3Cc5cc(C)c(OC)c(O)c5C(C21)N3C)OCO4 gave viability, T/C of 102

According to the records, this compound Cc1cc(C)c(CNC(=O)c2cc(-c3ccc(CN4CCOCC4)cc3)cc3c2cnn3C2CCCC2)c(=O)[nH]1 + COc1cc2c(cc1O)CCNC21CSC2c3c(OC(C)=O)c(C)c4c(c3C(COC1=O)N1C(O)C3Cc5cc(C)c(OC)c(O)c5C(C21)N3C)OCO4 displays viability, T/C of 103

The origin of these recorded values is PubChem BioAssay AID1845208.
